Record type: GI50 measurement. Applies to: MCF-7
Measured metric: GI50 (nM)

INSERT INTO measurements (molecule, value_reported) VALUES
  ('C=C(CC(=O)OC)C(=O)Nc1ccc(C(F)(F)F)cc1', 1000),
  ('C=C(CC(=O)OC)C(=O)NCCCCNc1ccnc2cc(Cl)ccc12', 800),
  ('COc1ccc2[nH]c(CCNC(=O)C=C(C)C(=O)NCCc3c[nH]c4ccc(OC)cc34)cc2c1', 11000);

1: C=C(CC(=O)OC)C(=O)NCCc1cccnc1
2: C=C(CC(=O)OC)C(=O)NCCCC(C)Nc1cc(OC)cc2cccnc12 (stereo not drawn)
3: CC(=CC(=O)NCCCCNc1cc(C(F)(F)F)nc2c(C(F)(F)F)cccc12)C(=O)NCCCCNc1cc(C(F)(F)F)nc2c(C(F)(F)F)cccc12
4: C=C(CC(=O)OC)C(=O)Nc1cc(OC)cc2cccnc12
5: COc1cc(NC(C)CCCN)c2ncccc2c1 (stereo not drawn) [PQ, primaquine diphosphate, reference compound]
Arrange these 5 molecules in increasing order of GI50. Rank the items, then write their labels in that order.
3, 1, 2, 5, 4

###

tested on: H460; test: Anticancer screening, MTT assay, 72 h; type: cell-based; conditions: Homo sapiens, NCI-H460, 72 h
Measured metric: GI50 (µM)

Example entries and their recorded answers appear below.
INSERT INTO results (smiles_structure, measured_metric, value_reported) VALUES
  ('C=C(CC(=O)OC)C(=O)Nc1cncc(F)c1', 'GI50', 16),
  ('C=C(CC(=O)OC)C(=O)Nc1ccc(F)cc1', 'GI50', 15),
  ('C=C(CC(=O)OC)C(=O)NCc1cccnc1', 'GI50', 16);

A: C=C(CC(=O)OC)C(=O)NCCc1cccnc1
B: C=C(CC(=O)OC)C(=O)Nc1cc(OC)cc2cccnc12
Hi, I'm comparing A with B and wondering which one has the bigger number for GI50. Any idea? Answer format: the label of the selected item.
A
(A: 15 µM, B: 8 µM)

###

tested on: HL-60; test: Anticancer screening, MTS cell proliferation assay, 72 h; type: cell-based; conditions: Homo sapiens, HL-60, 72 h
Measured metric: GI50 (µM)

INSERT INTO measurements (smiles_structure, value_reported) VALUES
  ('C=C(CC(=O)OC)C(=O)Nc1cccnc1', 13.1);

A: C=C(CC(=O)OC)C(=O)Nc1cncc(F)c1
B: C=C(CC(=O)OC)C(=O)NCCc1c[nH]c2ccc(OC)cc12
Hi, I'm comparing A with B and wondering which one has the bigger number for GI50. Any idea? Answer format: the label of the selected item.
A
(A: 10.6 µM, B: 4.9 µM)

###

test system: Capan-1; test: Anticancer screening, MTS cell proliferation assay, 72 h; format: cell-based; conditions: Homo sapiens, CAPAN-1, 72 h
Measured metric: GI50 (nM)

P: C=C(CC(=O)OC)C(=O)Nc1cncc(F)c1
Q: C=C(CC(=O)OC)C(=O)Nc1cccc(C(F)(F)F)c1
R: C=C(CC(=O)OC)C(=O)Nc1ccc(F)cc1
Rank ascending by GI50. Rank the items, then write their labels in that order.
Q, R, P
